Test system: RPMI-8226 leukemia
PROTOCOL_DESCRIPTION: NCI tumour cell line growth inhibition, 48 h
PROPERTY: GI50

// below: answered compounds
{"COMPOUND": "CCN1C(=O)N(CC)C2C1NN=c1s/c(=C\\c3ccccn3)c(=O)n12 (stereo not drawn)", "GI50": "1710 nM"}
{"COMPOUND": "Cc1cn2c(/C=C3/C(=O)Nc4ccc(O)cc43)c(C)nc2s1", "GI50": "1930 nM"}

# map each compound to its GI50
1. CCc1ccc2c(c1)C(=O)c1c-2n(CCCN=[N+]=[N-])c(=O)c2cc(OC)c(OC)cc12
2. Cc1nn(-c2ccc(Cl)cc2)c2nc3c(nc12)C(=O)C(=O)c1ccccc1-3
3. Cc1nn(-c2ccc([N+](=O)[O-])cc2)c2ncnc(N/N=C/c3ccccc3O)c12
4. Cc1[nH]c(=O)nc(Nc2ccc(Cl)cc2)c1C(=O)N1CCN(CCO)CC1

1. > 100000 nM
2. 5650 nM
3. 619 nM
4. > 100000 nM

# batch: return GI50 for each of the 5 compounds below
1. O=C1NOC(c2ccc(O)cc2)(c2ccc(O)cc2)c2ccccc21
2. O=C(Nc1ccc(Oc2cccc(F)c2)c(Cl)c1)c1cnccn1
3. CCOC(=O)C1CCCCN1C(=O)c1ccc(Nc2cnc3cc(C(F)(F)F)ccc3n2)cc1 (stereo not drawn)
4. COc1cc(OC)c(C(=O)/C=C/c2cccc(C#N)c2)c(OC)c1
5. Cc1ccc(-c2csc(NC(=O)N3CCN(c4cc5c(cc4F)c(=O)c(C(=O)O)cn5C4CC4)CC3)n2)cc1

1: > 100000 nM; 2: 1790 nM; 3: 2200 nM; 4: 981 nM; 5: 378 nM
